Examples of compounds with documented pIC50 follow.
tested_on: hmGluR1 receptor (Homo sapiens)
Construct: expressed in transfected cells
Sequence (Q13255 19-1194): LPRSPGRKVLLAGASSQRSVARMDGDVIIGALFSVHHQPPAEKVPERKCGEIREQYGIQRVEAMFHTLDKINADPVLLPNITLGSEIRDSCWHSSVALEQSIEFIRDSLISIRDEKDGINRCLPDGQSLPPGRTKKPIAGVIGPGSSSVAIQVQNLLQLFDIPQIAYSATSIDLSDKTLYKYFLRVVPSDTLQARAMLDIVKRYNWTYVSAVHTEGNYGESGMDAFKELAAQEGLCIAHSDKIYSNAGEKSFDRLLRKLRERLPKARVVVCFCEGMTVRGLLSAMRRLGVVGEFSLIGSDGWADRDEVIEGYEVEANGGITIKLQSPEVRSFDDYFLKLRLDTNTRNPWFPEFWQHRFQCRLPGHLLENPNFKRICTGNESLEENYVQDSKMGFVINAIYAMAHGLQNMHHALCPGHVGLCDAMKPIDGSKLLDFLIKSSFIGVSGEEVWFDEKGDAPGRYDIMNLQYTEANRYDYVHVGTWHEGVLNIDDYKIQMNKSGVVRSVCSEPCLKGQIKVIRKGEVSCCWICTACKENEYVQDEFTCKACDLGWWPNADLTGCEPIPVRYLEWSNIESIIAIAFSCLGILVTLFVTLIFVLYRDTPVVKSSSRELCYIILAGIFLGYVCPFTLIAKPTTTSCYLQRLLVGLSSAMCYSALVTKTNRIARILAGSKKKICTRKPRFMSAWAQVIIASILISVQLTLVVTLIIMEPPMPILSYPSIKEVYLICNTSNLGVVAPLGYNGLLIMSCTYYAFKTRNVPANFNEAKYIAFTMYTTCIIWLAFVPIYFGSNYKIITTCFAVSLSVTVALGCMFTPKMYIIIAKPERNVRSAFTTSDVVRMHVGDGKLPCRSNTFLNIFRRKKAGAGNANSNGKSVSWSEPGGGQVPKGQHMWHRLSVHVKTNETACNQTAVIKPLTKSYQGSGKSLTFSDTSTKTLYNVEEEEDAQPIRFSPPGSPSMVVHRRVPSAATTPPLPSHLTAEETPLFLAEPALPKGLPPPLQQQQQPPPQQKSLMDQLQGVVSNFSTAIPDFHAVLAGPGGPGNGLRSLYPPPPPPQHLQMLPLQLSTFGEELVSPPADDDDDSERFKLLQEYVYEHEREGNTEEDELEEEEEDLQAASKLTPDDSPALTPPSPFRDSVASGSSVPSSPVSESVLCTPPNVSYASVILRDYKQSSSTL
experimental_protocol: IC50 determination: intracellular calcium mobilization (FLIPR) upon Quisqualate stimulation in CHO cells stably expressing hmGluR1
Format: cell-based
condition_context: against Quisqualate 1 μM (EC80), class symbols, read-out: mGIuR 1 IC50
Experimental: A CHO cell line stably expressing hmGluR1 receptor was established. One day prior to assay, cells were split in growth media at concentration of 50,000 cells/well in a volume of 100 μl and seeded into black clear-bottom 96-well plates. After two to six hours, when cells were well attached to the plate, growth medium was replaced with assay medium (100 μL) consisting of DMEM high glucose, supplemented with GPT (1 U/mL) and Sodium pyruvate, 1 mM. […]
pIC50: −log10 of the molar value.

Cc1ccc(-n2cnc3c(sc4nccc(N(C)C)c43)c2=O)cc1Br ... > 7.30
CN(C)c1ccnc2sc3c(=O)n(Cc4ccsc4)cnc3c12 [15V] ... 6.00 to 6.82
CCC(=O)Nc1ccnc2sc3c(=O)n(C4CCCCC4)cnc3c12 [73A] ... < 6.00
COc1ccc(-n2cnc3c(sc4nccnc43)c2=O)cc1 ... < 6.00
COc1ccc(NC(=O)CSc2nc3c(sc4nc(C)cc(C)c43)c(=O)n2-c2ccc(Cl)cc2)cc1 ... 6.00 to 6.82
CC(C)Nc1ccnc2sc3c(=O)n(C4CCCCC4)cnc3c12 [28AH] ... 6.00 to 6.82
CN(C)c1c(Cl)cnc2sc3c(=O)n(C4CCCCC4)cnc3c12 ... 6.82 to 7.30
Cc1ccc(-n2cnc3c(sc4nccc(NCC5CC5)c43)c2=O)cc1 [28AY] ... 6.00 to 6.82

The compound CN(C)c1ccnc2sc3c(=O)n(-c4ccc(C#N)cc4)cnc3c12 , when measured on hmGluR1 receptor (Homo sapiens), yielded pIC50 of > 7.30

Record Cc1ccc(-n2cnc3c(sc4nccc(NCC(F)(F)F)c43)c2=O)cc1 [28AU] / hmGluR1 receptor (Homo sapiens), pIC50 recorded as > 7.30

Item CN(C)c1ccc(-n2cnc3c(sc4nccc(N(C)C)c43)c2=O)cc1 ; assay system hmGluR1 receptor (Homo sapiens); pIC50 reported as > 7.30

Entry COc1ccc(-n2cnc3c(sc4nccc(Br)c43)c2=O)cc1 under hmGluR1 receptor (Homo sapiens) had pIC50 of 6.00 to 6.82

Bench note, hmGluR1 receptor (Homo sapiens): Cc1cc(N(C)C)c2c(n1)sc1c(=O)n(-c3ccc(F)cc3)cnc12 , pIC50 reads > 7.30

The compound Cc1nn(C)c(C)c1-n1cnc2c(sc3nccc(N(C)C)c32)c1=O [15AC] , when measured on hmGluR1 receptor (Homo sapiens), yielded pIC50 of < 6.00

Entry CN(C)c1cc(Cl)nc2sc3c(=O)n(C4CCCCC4)cnc3c12 : pIC50 on hmGluR1 receptor (Homo sapiens) = 6.82 to 7.30

// assay hmGluR1 receptor (Homo sapiens), entry CSc1ccc(-n2cnc3c(sc4nccc(N(C)C)c43)c2=O)cc1 , pIC50 value = > 7.30

The measured pIC50 that Cc1cc(N(C)C)c2c(n1)sc1c(=O)n(-c3ccc(Br)cc3)cnc12 showed for hmGluR1 receptor (Homo sapiens) is > 7.30

Value sought: pIC50, system hmGluR1 receptor (Homo sapiens), item COc1ccc(-n2cnc3c(sc4nccc(N)c43)c2=O)cc1 [72C] . Result: > 7.30

Observed pIC50 on hmGluR1 receptor (Homo sapiens), entry C#CCn1cnc2c(sc3nccc(N(C)C)c32)c1=O , equals < 6.00

The compound Cc1ccc(-n2cnc3c(sc4nccc(C(=O)O)c43)c2=O)cc1 , when measured on hmGluR1 receptor (Homo sapiens), yielded pIC50 of < 6.00
